Data origin: patent US20030129629A1

System: 60 cancer cell lines (NCI 60 cancer cell line series)
Test: NCI-DTP in vitro cancer screen, sulforhodamine B (SRB) growth inhibition, 48 hour exposure
Format: cell-based, human
Details: Breast BT-549 CL5013
Description: Cancer Cell Line Preparation. Sixty cancer cell lines were obtained from the National Cancer Institute Developmental Therapeutics Program (NCI-DTP). […] No-drug, no-cell and no-growth controls are included. […] From dose response curves based on the SRB data, various parameters can be determined. […] More precisely, the quantity used in the calculation to be described is the potency measure −log{GI50}. […]
Counter-ions that a name gives are not always drawn.
parameter: classification of cell line as Low(1), Medium(2), High(3) sensitivity to compound

Guide cases for classification of cell line as Low(1), Medium(2), High(3) sensitivity to compound, answers given:
INSERT INTO measurements (molecule, test_value) VALUES
  ('COc1cccc2c1C(=O)c1c(O)c3c(c(O)c1C2=O)C[C@@](O)(C(=O)CO)C[C@@H]3OC1CC(N)CC(C)O1.Cl (stereo partly shown)', 2),
  ('O=c1[nH]cc(F)c(=O)[nH]1', 1),
  ('Sc1ncnc2nc[nH]c12', 1),
  ('CC[C@]1(O)C[C@H]2CN(CCc3c([nH]c4ccccc34)[C@@](C(=O)OC)(c3cc4c(cc3OC)N(C=O)[C@H]3[C@@](O)(C(=O)OC)[C@H](OC(C)=O)[C@]5(CC)C=CCN6CC[C@]43[C@@H]65)C2)C1 [Vincristine sulfate]', 1),
  ('N[C@@H](Cc1ccc(N(CCCl)CCCl)cc1)C(=O)O', 2);

Enquiry: # get_value(readout= classification of cell line as Low(1), Medium(2), High(3) sensitivity to compound, system= 60 cancer cell lines (NCI 60 cancer cell line series)) for COc1cccc2c1C(=O)c1c(O)c3c(c(O)c1C2=O)C[C@@](O)(C(=O)CO)C[C@@H]3O[C@H]1C[C@H](N)[C@H](O)[C@H](C)O1
Return: 2

Enquiry: # get_value(readout= classification of cell line as Low(1), Medium(2), High(3) sensitivity to compound, system= 60 cancer cell lines (NCI 60 cancer cell line series)) for CC(=O)O[C@H]1C(=O)[C@@]2(C)[C@H]([C@H](OC(=O)c3ccccc3)[C@]3(O)C[C@H](OC(=O)[C@H](O)[C@@H](NC(=O)c4ccccc4)c4ccccc4)C(C)=C1C3(C)C)[C@]1(OC(C)=O)CO[C@@H]1C[C@@H]2O [TAXOL, paclitaxel, reference compound]
Return: 2

Enquiry: # get_value(readout= classification of cell line as Low(1), Medium(2), High(3) sensitivity to compound, system= 60 cancer cell lines (NCI 60 cancer cell line series)) for COc1cc([C@@H]2c3cc4c(cc3[C@@H](O[C@@H]3O[C@@H]5CO[C@@H](C)O[C@H]5[C@H](O)[C@H]3O)[C@H]3COC(=O)[C@H]23)OCO4)cc(OC)c1O [Etoposide]
Return: 2

Enquiry: # get_value(readout= classification of cell line as Low(1), Medium(2), High(3) sensitivity to compound, system= 60 cancer cell lines (NCI 60 cancer cell line series)) for O=C1c2c(O)ccc(O)c2C(=O)c2c(NCCNCCO)ccc(NCCNCCO)c21
Return: 2

Enquiry: # get_value(readout= classification of cell line as Low(1), Medium(2), High(3) sensitivity to compound, system= 60 cancer cell lines (NCI 60 cancer cell line series)) for O=C(O)CCCc1ccc(N(CCCl)CCCl)cc1
Return: 1
